# Test system: Streptococcus pneumoniae CMCC 31203
# PROCEDURE TEXT: In vivo antibacterial test, survival of infected BALB/c mice
# MEASUREMENT PARAMETERS: CMCC31203, sc, 168 h; BALB/c mice infected i.p. with Streptococcus pneumoniae; 5 mg per kg s.c. via neck for 3 consecutive days; deaths recorded until the seventh day; read-out: Animal survival rate
ENDPOINT NAME: responders at 5 mg/kg (%)
// units = %; emit number, no label

Example cases with answers are listed next.
{"COMPOUND": "CCCCCNC[C@]1(O)[C@H](C)OC(O[C@@H]2[C@@H](C)[C@@H](O[C@@H]3O[C@H](C)C[C@H](N(C)C)[C@H]3O)[C@](C)(O)C[C@@H](C)NC[C@@H](C)[C@H](O)[C@](C)(O)[C@H](CC)OC(=O)[C@@H]2C)C[C@@]1(C)OC (stereo partly drawn)", "TEST TARGET": "Streptococcus pneumoniae CMCC 31203", "DISPLAY UNIT": "%", "responders at 5 mg/kg": 90}
{"COMPOUND": "CC[C@@H]1OC(=O)[C@H](C)[C@H](OC2C[C@@](C)(OC)[C@](O)(CN(CC)CC)[C@H](C)O2)[C@@H](C)[C@@H](O[C@@H]2O[C@H](C)C[C@H](N(C)C)[C@H]2O)[C@](C)(O)C[C@@H](C)NC[C@@H](C)[C@H](O)[C@]1(C)O (stereo partly drawn)", "TEST TARGET": "Streptococcus pneumoniae CMCC 31203", "DISPLAY UNIT": "%", "responders at 5 mg/kg": 70}
{"COMPOUND": "CC[C@@H]1OC(=O)[C@H](C)[C@H](OC2C[C@@](C)(OC)[C@](O)(CNC(C)C)[C@H](C)O2)[C@@H](C)[C@@H](O[C@@H]2O[C@H](C)C[C@H](N(C)C)[C@H]2O)[C@](C)(O)C[C@@H](C)NC[C@@H](C)[C@H](O)[C@]1(C)O (stereo partly drawn)", "TEST TARGET": "Streptococcus pneumoniae CMCC 31203", "DISPLAY UNIT": "%", "responders at 5 mg/kg": 70}
{"COMPOUND": "CC[C@@H]1OC(=O)[C@H](C)[C@H](OC2C[C@@](C)(OC)[C@](O)(CNCC(C)C)[C@H](C)O2)[C@@H](C)[C@@H](O[C@@H]2O[C@H](C)C[C@H](N(C)C)[C@H]2O)[C@](C)(O)C[C@@H](C)NC[C@@H](C)[C@H](O)[C@]1(C)O (stereo partly drawn)", "TEST TARGET": "Streptococcus pneumoniae CMCC 31203", "DISPLAY UNIT": "%", "responders at 5 mg/kg": 70}
{"COMPOUND": "CC[C@@H]1OC(=O)[C@H](C)[C@H](OC2C[C@@](C)(OC)[C@](O)(CN3CCOCC3)[C@H](C)O2)[C@@H](C)[C@@H](O[C@@H]2O[C@H](C)C[C@H](N(C)C)[C@H]2O)[C@](C)(O)C[C@@H](C)NC[C@@H](C)[C@H](O)[C@]1(C)O (stereo partly drawn)", "TEST TARGET": "Streptococcus pneumoniae CMCC 31203", "DISPLAY UNIT": "%", "responders at 5 mg/kg": 70}

The observed responders at 5 mg/kg for CC[C@@H]1OC(=O)[C@H](C)[C@H](OC2C[C@@](C)(OC)[C@](O)(CN3CCCCC3)[C@H](C)O2)[C@@H](C)[C@@H](O[C@@H]2O[C@H](C)C[C@H](N(C)C)[C@H]2O)[C@](C)(O)C[C@@H](C)NC[C@@H](C)[C@H](O)[C@]1(C)O (stereo partly drawn) when tested with Streptococcus pneumoniae CMCC 31203 stands at 70

The observed responders at 5 mg/kg for CC[C@@H]1OC(=O)[C@H](C)[C@H](OC2C[C@@](C)(OC)[C@](O)(CNCCCOC)[C@H](C)O2)[C@@H](C)[C@@H](O[C@@H]2O[C@H](C)C[C@H](N(C)C)[C@H]2O)[C@](C)(O)C[C@@H](C)NC[C@@H](C)[C@H](O)[C@]1(C)O (stereo partly drawn) when tested with Streptococcus pneumoniae CMCC 31203 stands at 80

The observed responders at 5 mg/kg for CC[C@@H]1OC(=O)[C@H](C)[C@H](OC2C[C@@](C)(OC)[C@](O)(CNCC3CCCCC3)[C@H](C)O2)[C@@H](C)[C@@H](O[C@@H]2O[C@H](C)C[C@H](N(C)C)[C@H]2O)[C@](C)(O)C[C@@H](C)NC[C@@H](C)[C@H](O)[C@]1(C)O (stereo partly drawn) when tested with Streptococcus pneumoniae CMCC 31203 stands at 70

The observed responders at 5 mg/kg for CC[C@@H]1OC(=O)[C@H](C)[C@H](OC2C[C@@](C)(OC)[C@](O)(CNCC3CC3)[C@H](C)O2)[C@@H](C)[C@@H](O[C@@H]2O[C@H](C)C[C@H](N(C)C)[C@H]2O)[C@](C)(O)C[C@@H](C)NC[C@@H](C)[C@H](O)[C@]1(C)O (stereo partly drawn) when tested with Streptococcus pneumoniae CMCC 31203 stands at 70
